TEST TARGET: the molecule itself
METHOD NOTES: SEC-MALS; NusA-fused proteins on Superdex 200 Increase 10/300; 20 mM Tris pH 7.5, 500 mM NaCl, 2 mM DTT; miniDAWN MALS and Optilab dRI detectors

>  <PROTEIN>
NusA-tagged FoxP3^RBR-forkhead Y373V (domain or fragment, mouse, UniProt Q99JB6 284-423, looked up, FoxP3, mouse, RBR-forkhead, residues 284-423 with the IPEX mutation Y373V; Y373V is a mutation of human IPEX patients, here put into the mouse protein; also called Y373V FoxP3^RBR-forkhead; source: E. coli BL21(DE3), purified (Ni-NTA, Superdex 200), HRV3C cleavage omitted; not shown: His6, N-terminal, kept; NusA, N-terminal, kept) TSTQGSVLPAWSAPREAPDGGLFAVRRHLWGSHGNSSFPEFFHNMDYFKYHNMRPPFTYATLIRWAILEAPERQRTLNEIYHWFTRMFAVFRNHPATWKNAIRHNLSLHKCFVRVESEKGAVWTVDEFEFRKKRSQRPNK

>  <stoichiometry N>
4

$$$$
>  <PROTEIN>
NusA-tagged FoxP3^forkhead (domain or fragment, mouse, UniProt Q99JB6 336-423, looked up, FoxP3, mouse, forkhead domain, residues 336-423; NusA (60 kDa) kept for SEC-MALS; also called isolated FoxP3 forkhead; source: E. coli BL21(DE3), purified (Ni-NTA, Superdex 200), HRV3C cleavage omitted; not shown: His6, N-terminal, kept; NusA, N-terminal, kept) MRPPFTYATLIRWAILEAPERQRTLNEIYHWFTRMFAYFRNHPATWKNAIRHNLSLHKCFVRVESEKGAVWTVDEFEFRKKRSQRPNK

>  <stoichiometry N>
2

$$$$
>  <PROTEIN>
NusA-tagged FoxP3^ΔN (domain or fragment, mouse, UniProt Q99JB6 188-423, looked up, FoxP3, mouse, ZF, CC, RBR and forkhead, residues 188-423; source: E. coli BL21(DE3), purified (Ni-NTA, Superdex 200), HRV3C cleavage omitted; not shown: His6, N-terminal, kept; NusA, N-terminal, kept) GSYPLLANGVCKWPGCEKVFEEPEEFLKHCQADHLLDEKGKAQCLLQREVVQSLEQQLELEKEKLGAMQAHLAGKMALAKAPSVASMDKSSCCIVATSTQGSVLPAWSAPREAPDGGLFAVRRHLWGSHGNSSFPEFFHNMDYFKYHNMRPPFTYATLIRWAILEAPERQRTLNEIYHWFTRMFAYFRNHPATWKNAIRHNLSLHKCFVRVESEKGAVWTVDEFEFRKKRSQRPNK

>  <stoichiometry N>
2

$$$$
>  <PROTEIN>
NusA-tagged FoxP3^RBR-forkhead R337Q (domain or fragment, mouse, UniProt Q99JB6 284-423, looked up, FoxP3, mouse, RBR-forkhead, residues 284-423 with the IPEX mutation R337Q; R337Q is a mutation of human IPEX patients, here put into the mouse protein; also called R337Q FoxP3^RBR-forkhead; FoxP3^RBR-forkhead with R337Q; source: E. coli BL21(DE3), purified (Ni-NTA, Superdex 200), HRV3C cleavage omitted; not shown: His6, N-terminal, kept; NusA, N-terminal, kept) TSTQGSVLPAWSAPREAPDGGLFAVRRHLWGSHGNSSFPEFFHNMDYFKYHNMQPPFTYATLIRWAILEAPERQRTLNEIYHWFTRMFAYFRNHPATWKNAIRHNLSLHKCFVRVESEKGAVWTVDEFEFRKKRSQRPNK

>  <stoichiometry N>
2

$$$$
